Answer each item with its documented melting point.

Request: Give reported melting point value for CS(=O)(=O)Nc1cc2c(cc1Oc1ccccc1)CCO2
Result: 133 °C

Request: Give reported melting point value for CCC(C)Nc1cc(N2CCc3cc(OC)cc(Cl)c32)nc(C)n1 (centres undefined)
Result: 102 to 105 °C

Request: Give reported melting point value for CSc1ccc(C2=C(Br)C(=O)OC2)cc1
Result: 138 to 140 °C

Request: Give reported melting point value for CCOc1cc(N=Nc2ccc(OC)cc2)c(O)c(C(C)(C)C)c1
Result: 105 to 108 °C

Request: Give reported melting point value for O=C(c1ccccc1)N1CCC2(CC1)Cc1ccccc1C2=O
Result: 149 to 154 °C

Request: Give reported melting point value for CCOC(=O)c1ncn2c3cccc(Br)c3c(=O)n(C)c12
Result: 272 °C

Request: Give reported melting point value for Cn1ncnc1-n1cc(C(=O)O)c(=O)c2cc(F)c(F)cc21
Result: 254 to 264 °C

Request: Give reported melting point value for Nc1cc(C(F)(F)F)ccc1C=C1NC(=S)NC1=O
Result: 240 °C

Request: Give reported melting point value for CC(C)(C)OC(=O)N[C@H](Cc1ccc(Cl)c(Cl)c1)C(=O)N1CCC[C@H]1C(=O)NC1CCc2nc(N)sc2C1 (some centres undefined)
Result: 116 to 119 °C

---

measured-property: melting point

Request: Give reported melting point value for O=C1C(CSC(=O)c2ccccc2)=C(CSC(=O)c2ccccc2)C(=O)C(CSC(=O)c2ccccc2)=C1CSC(=O)c1ccccc1
Result: 224 to 226 °C

Request: Give reported melting point value for C1CNCCSCCNCCN1
Result: 51 to 54 °C

Request: Give reported melting point value for Nc1ccc(C23CC(C2)C(=O)N(C2CCCCC2)C3=O)cc1
Result: 139 °C

Request: Give reported melting point value for C[C@@H]1O[C@](C#CC2CC2)(C(F)(F)F)c2c(ccc3c2OCO3)NC1=O (relative stereo)
Result: 252 to 253 °C

Request: Give reported melting point value for CCOC(=O)COc1cc2c(c(Cl)c1Cl)C(=O)C(C)(C(C)C)C2 (stereo not drawn)
Result: 113 °C

Request: Give reported melting point value for COc1ccc(Oc2cccc(Cl)n2)cc1
Result: 63 to 65 °C

Request: Give reported melting point value for CCCc1nnc2n1-c1ccc(Br)cc1C(c1ccccn1)=NC2
Result: 184 to 186 °C

Request: Give reported melting point value for CCN1CCC(CCC2CCN(c3ncnc4cc(OC)c(OC)cc34)CC2)S1(=O)=O (stereo not drawn)
Result: 130 °C

---

Answer each item with its documented melting point.

Request: Give reported melting point value for O=C(O)c1ccc(CC2COc3ccc(OCc4ccc5ccccc5n4)cc3C2O)cc1 (centres undefined)
Result: 199 to 201 °C

Request: Give reported melting point value for CC1(C)CCC(C)(C)c2cc(-c3cc(-c4ccc(C=O)cc4)on3)ccc21
Result: 179 to 180 °C

Request: Give reported melting point value for CCOC(=O)NC(=NCCCc1c[nH]cn1)NCCSCc1ccccn1
Result: 60 to 61 °C

Request: Give reported melting point value for CCN(CC)CCNC(=O)c1cc(Cl)c(N)cc1OCCCCSC
Result: 101 to 103 °C

---

Answer each item with its documented melting point.

Request: Give reported melting point value for CCCN1C(=O)N2CC(CC)N=C2c2c1ncn2C (stereo not given)
Result: 124 to 126 °C

Request: Give reported melting point value for COC(COC(=O)C1=C(C)NC2=C(C(=O)CN(Cc3ccccc3)C2)C1c1c(F)c(F)c(F)c(F)c1F)c1ccccc1 (stereo not given)
Result: 220 to 222 °C

Request: Give reported melting point value for CCCCN(C(=O)C(C)C)c1nnc(C)s1
Result: 54 to 57 °C

Request: Give reported melting point value for N=C(Nc1cc(NC(=O)/C=C/c2ccccc2Cl)cc(C(F)(F)F)c1)c1cccs1
Result: 206 to 208 °C

Request: Give reported melting point value for O=C(O)c1cnn(-c2cccc(C(F)(F)F)c2)c1
Result: 145 to 148 °C

Request: Give reported melting point value for O=C(O)C=CCCCc1cccc2cncn12
Result: 142 to 144 °C

Request: Give reported melting point value for Cc1ccc2cc(C3=NCCS3)[nH]c2c1NS(=O)(=O)c1cccs1
Result: 183 to 184 °C

Request: Give reported melting point value for COC(=O)CC(Nc1ccccc1OC)c1cc2ccccc2nc1Cl (stereo not given)
Result: 135 to 137 °C

Request: Give reported melting point value for COc1cc(/C=C/CO)ccc1OCc1nc(-c2ccco2)oc1C
Result: 128 to 129 °C

Request: Give reported melting point value for CC(C(=O)O)N1CCNC(C(=O)O)C1 (stereo not given)
Result: 173 to 174 °C

Request: Give reported melting point value for Cc1cc2nc(Cl)c(Cl)nc2c(N)c1C
Result: 178 to 180 °C

Request: Give reported melting point value for CCOCc1nc2c(N)nc(C)c(C)c2n1CCCNC(=O)C(C)C
Result: 179 to 180 °C

Request: Give reported melting point value for CC1Oc2c(Cc3ccccc3)cc(C=O)cc2NC1=O (stereo not given)
Result: 163 to 166 °C

Request: Give reported melting point value for O=C1Cn2ccnc2-c2ccccc2N1
Result: 265 to 266 °C

Request: Give reported melting point value for COc1c(C)c(C)c(OC)c(CCCCO)c1C
Result: 85.1 to 87.1 °C

Data origin, for the record: a melting point compilation (Tetko et al.; mined from patent text by program, amines drawn as free bases though some values may be those of a salt)
